B1: Subtilisin-chymotrypsin inhibitor-2A, P01053 (parent)
chain: MSSVEKKPEGVNTGAGDRHNLKTEWPELVGKSVEEAKKVILQDKPEAQIIVLPVGTIVTMEYRIDRVRLFVDKLDNIAQVPRVG

Variants of: B1
cond: Hordeum vulgare; pH 3; Thermal; DSC; MES 450 mM; reversible: yes; structure 2CI2; whole UniProt chain shown
So basically, if unfolding enthalpy (van 't Hoff) comes in under 50 kcal/mol it's t, and if it's 50 kcal/mol or more it's f.

Please review the entries below; each comes with its answer.
> print(dat)
   mutations  group
1       L28A      t
2       I40V      f
3       I77A      t
4       V39A      f

Here is the next item to consider.
Challenge: Identify whether the variant I77V records unfolding enthalpy (van 't Hoff) below 50 kcal/mol.
Response given: f
